From: the supplement of paper PMC10567573

Assay: protein stability index of a GFP-peptide fusion (GPS, HEK-293T) (PSI 1-6); higher = more stable;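 further: 24-mer peptide tiles fused after GFP, lentivirally expressed, FACS-sorted into six equal bins by GFP/DsRed ratio, decoded by Illumina sequencing, PSI is the read-weighted mean bin number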
Details: treatment: MLN4924 1 uM, 8 h; c terminus: a fixed tail appended
Classification field: enter class 1 for protein stability index values not below 3, class 0 for values below it.

NKGTETDNDPSCVHPIIKRRQCRP [PHTF1]
class 1
CTRDCMSFSVLNWDQVSRLHEVLT [TENT5C]
class 0
VAELFCRRCRRCVCALCPVLGAHR [TRIM14]
class 0
RLEQEIATYRSLLEGQDAKMIGFP [KRT13]
class 1
LYLNLALHLASDFFLKHPDKDVRL [PDS5B]
class 1
KAPKKDVIKMLVNDNKVLRYLAVL [EFHC1]
class 0

Now for a further sequence.
Is protein stability index for VGKTRLICARACNATLTQYQLLAT [RHOBTB2] at or above 3? class 0

* * *

Experiment: protein stability index of a GFP-peptide fusion (GPS, HEK-293T) (PSI 1-6); higher = more stable
Settings: treatment: MLN4924 1 uM, 8 h; c terminus: a fixed tail appended
Item-by-item account of protein stability index

Give its protein stability index value. Item: GYNPDYDESGGPDNEDYPLFRELW [KLHDC10] 3.47

// protein stability index lookup, key: RYVLKAGQTVTIWAANAGVTASPP [LMNB1] 3.49

// query protein stability index value for entry GEKEEEDKDDEEKPKIEDVGSDEE [HSP90AB1] 5.77

Which protein stability index is reported for this sequence? HLKSSRNSTSVKKKSSRNIFSIVF [P2RY14] 2.13

Could you tell me which protein stability index is on file for EGNHPSARKLTAQRRASTVSSVTQ [NET1] ? 4.69

State the recorded protein stability index for this entry: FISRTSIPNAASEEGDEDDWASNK [WEE1] 4.73

* * *

Experiment: protein stability index of a GFP-peptide fusion (GPS, HEK-293T) (PSI 1-6); higher = more stable
Conditions: treatment: DMSO; c terminus: a fixed tail appended
METRIC: protein stability index
Provide a numeric answer; units are not to be included.

ATLPGIFMLLLIFFAFLHCWLNAF [SOAT2]
2.46
PGGGRGALLDQIRQGIQLNKTPGA [WAS]
5.3
RFCCCVAVIYLGYCFCGWIVLGPY [MCOLN1]
3.41
SKTNLIVNYLPQNMTQDEFKSLFG [ELAVL3]
2.63
AHQQKKHSGFEDELSEVLENQSSQ [CHGA]
5.28
KVMKQPRCGVPDVAQFVLTEGNPR [MMP1]
3.32

Using the record for DHEDNDKMNDSEGMDPERLKAFNM [NOL4L] , report its protein stability index. 5.46

What does the data say about its protein stability index? Entry: RCIGVTKPIFHSTKITSKHVKMML [PTGFR] 2.13

Which value of protein stability index has been reported for WAQLEAPARLLLQALQAGPEGARR [FANCE] in the records? 2.78

Query (sequence): FKHILRTEGAFGLYRGLAPNFMKV [SLC25A25] ; field requested: protein stability index 2.18

State the recorded protein stability index for this entry: VIRLKQEQHVHNEKSVLKEVSHPF [PRKX] 3.36

Reported protein stability index for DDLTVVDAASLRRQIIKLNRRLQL [MFF] : what is it? 2.49

Param item = AWKDDFALNSMLRRRFREKKKAIQ [YJU2B] ; retrieve measured protein stability index. 3.27

Query (sequence): QQLNDYEQLLDVKLALDMEISAYR [LMNB1] ; field requested: protein stability index 2.95

Looking for the measured protein stability index of LADYLVPILAPRIFGSNKWTTEQQ [ARL6IP1] , can you help? 2.34

Request the reported protein stability index associated with KETLRLHPDIFLPSEICDRLVNEY [ZER1] 2.82

Please look up its protein stability index: YFYLGGARGAGPPEPLRICPLHIS [TRIM35] 2.44

Find the recorded protein stability index belonging to EKEQEKMRQDLEEERVALNTEIEK [PKD2L1] and report it. 5.45

Which protein stability index value is on record for MTSMSAELKMRAIQAEERLDMEKR [LRRC45] ? 4.65

Any idea what its protein stability index is? The sequence is MEKSSFTEYIESPDVENEVKRLLR [TAF7L] 3.79

Recorded protein stability index of DVTCNEFFFDRNPGAFGTILTFLR [KCNG1] , please. 2.59

Could you tell me which protein stability index is on file for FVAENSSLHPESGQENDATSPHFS [CD69] ? 3.74

# protein stability index lookup, item SSECHTSGFVGSGGWFCEGSFNGS [KRT36] 3.23

What value of protein stability index has been recorded for this entry: LFEGLGRDKAEELLQLPDTKVGSF [SLA] 3.82

* * *

Test: protein stability index of a GFP-peptide fusion (GPS, HEK-293T) (PSI 1-6); higher = more stable
Conditions: treatment: MLN4924 1 uM, 8 h; c terminus: a fixed tail appended
METRIC: protein stability index
Hey, just send me the number, nothing else.

Study these solved cases before continuing.
GDLSPGHGASAPSVSREARQTVPP [PWWP2B]
5.25
NQRIIHRDMKPDNILLDEHDTWLS [STK32A]
3.63
PQGSRSPYIPPHAALCLEVTLKTA [FKBP8]
2.1
TNEAACLLDNPLCADVLFILQDQE [RHOBTB1]
3.82
SKAHLEKVRSYVKRALAEGAQIWC [ALDH8A1]
3.19
YPSLYYPEMYILKGGYKEFFPQHP [CDC25B]
2.12
SIPKLKLTRPVPAGADLPPPKIRL [PWWP2B]
3.63
ISLWPREPPPKSGPSLVPGKTPTV [CD207]
3.43

// returns reported protein stability index for input DMLLEKLPQVAEEISGPLTSANKI [FLOT1] 4.43

// query protein stability index value for entry RELREVRRVPPRFSIPPTNHEIMP [PTPRD] 3.88

# protein stability index lookup, item VRERDRLGNEYPKLHYPELYVLKG [CDC25A] 2.75

Which value of protein stability index has been reported for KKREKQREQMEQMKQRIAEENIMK [FAM50A] in the records? 4.78

Name the reported protein stability index value associated with the sequence RRIHSLPQKLLGCSPALKRSHSDS [CDC25A] 5.21

Suppose we examine the sequence ELPSALESHEVPGTLSMGVPQIFK [ZNF24] ; what protein stability index value has been reported? 4.11

Request the reported protein stability index associated with VVGLHAASKDPREVREARDHKEPK [EHMT1] 5.11

What value of protein stability index has been reported for the following sequence? AEISARTMQSMFAKNFHVKAVMKT [PTPRD] 2.67

* * *

Assay: protein stability index of a GFP-peptide fusion (GPS, HEK-293T) (PSI 1-6); higher = more stable
Conditions: treatment: DMSO; c terminus: a fixed tail appended
METRIC: protein stability index
The answer should be written as a number, with no unit following it.

PLQFLGLFENSLCRLTHIPAYKVS [ZER1]
2.02
GRSREELDELTGEVAGGGTPLLIA [FEM1A]
4.6

Consider the sequence shown here: RDNAELEKLIQERSQQQEPLLCPS [KRT34] What is its recorded protein stability index? 4.94

protein stability index lookup needed for LEKGSFVGNISKDLGLAPRELAER [PCDHGA10] , thanks. 4.43

What does the data say about its protein stability index? Entry: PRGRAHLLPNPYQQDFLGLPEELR [C22orf15] 3.92

Give the measured protein stability index of SPQPLASSPGPWGLEALAGGDLMP [FCHO1] . 4.05

Which measured protein stability index value corresponds to SIKKKFLKRKGKTDSPWIKPARKR [EHMT1] ? 3.66

* * *

Test: protein stability index of a GFP-peptide fusion (GPS, HEK-293T) (PSI 1-6); higher = more stable
Conditions: treatment: MLN4924 1 uM, 8 h; c terminus: a fixed tail appended
Reported protein stability index values follow for various sequences
Write no unit; give the number alone.

Worked set:
IADRAAHDESPGNNVVDISVPPTT [RAB11B]
5.21
VAVDSNLRVRELQRKVDGIQKAYD [CCDC89]
3.94
LGSKHKVCMDLRANLKQVKKEDTE [TNNI2]
4.94
QEMVQRPQPHRNRAGLDLPTIDTG [TRAF3IP2]
4.59
RQWPTKSQTDRGASAGKRRCFWLG [SDE2]
3.19

What value of protein stability index has been recorded for this entry: NSQESRSDLEDMEEEEGTRSPTLE [SMG5] 5.44

* * *

Assay: protein stability index of a GFP-peptide fusion (GPS, HEK-293T) (PSI 1-6); higher = more stable
Conditions: treatment: DMSO; c terminus: a fixed tail appended
Cut-off 3 on protein stability index, inclusive. At or above means Met; below means Not met.

Use these answered entries as a reference point.
LTTFQDQLNRRGEFIQEIRRQLEA [OAS1]
Met
KAAALPPFPLGASAQNGLASSLPA [PLAGL1]
Met
RDLTQEQTEKLLQFQDLTGIESMD [FAF2]
Met
VPWLNLKKQDENEGIKVEDLLFIV [CEP70]
Not met
NGADVNIQSKDGKSPLHMTAVHGR [ANKRD44]
Met
VFGRLRDENGRPYSPSQYALQYAG [NFE2L1]
Not met

Quick check, protein stability index >= 3? EGGKLPPPPPPSYDPDYIQCPYCQ [ZC2HC1A] Met
